molecular target: ZFP SBS#245 (synthetic); assay: EMSA; conditions: tags: MBP fusion
Sequence (chain, as listed by the source): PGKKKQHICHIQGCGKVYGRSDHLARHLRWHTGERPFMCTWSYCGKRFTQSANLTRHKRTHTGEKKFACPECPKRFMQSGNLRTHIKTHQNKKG
VALUE_KIND: pKd
Reminder that pKd means the negative base-10 logarithm of the concentration expressed in mol/L.

In: // query pKd value for entry TAAGAAGGG (dsDNA) DNA 1: TAAGAAGGG DNA 2: CCCTTCTTA
Out: 6.63
